Molecular target: Ubiquitin-activating enzyme e1, putative (Leishmania donovani (strain BPK282A1)) (UniProt E9BSI1)
Sequence (E9BSI1 as listed by the source): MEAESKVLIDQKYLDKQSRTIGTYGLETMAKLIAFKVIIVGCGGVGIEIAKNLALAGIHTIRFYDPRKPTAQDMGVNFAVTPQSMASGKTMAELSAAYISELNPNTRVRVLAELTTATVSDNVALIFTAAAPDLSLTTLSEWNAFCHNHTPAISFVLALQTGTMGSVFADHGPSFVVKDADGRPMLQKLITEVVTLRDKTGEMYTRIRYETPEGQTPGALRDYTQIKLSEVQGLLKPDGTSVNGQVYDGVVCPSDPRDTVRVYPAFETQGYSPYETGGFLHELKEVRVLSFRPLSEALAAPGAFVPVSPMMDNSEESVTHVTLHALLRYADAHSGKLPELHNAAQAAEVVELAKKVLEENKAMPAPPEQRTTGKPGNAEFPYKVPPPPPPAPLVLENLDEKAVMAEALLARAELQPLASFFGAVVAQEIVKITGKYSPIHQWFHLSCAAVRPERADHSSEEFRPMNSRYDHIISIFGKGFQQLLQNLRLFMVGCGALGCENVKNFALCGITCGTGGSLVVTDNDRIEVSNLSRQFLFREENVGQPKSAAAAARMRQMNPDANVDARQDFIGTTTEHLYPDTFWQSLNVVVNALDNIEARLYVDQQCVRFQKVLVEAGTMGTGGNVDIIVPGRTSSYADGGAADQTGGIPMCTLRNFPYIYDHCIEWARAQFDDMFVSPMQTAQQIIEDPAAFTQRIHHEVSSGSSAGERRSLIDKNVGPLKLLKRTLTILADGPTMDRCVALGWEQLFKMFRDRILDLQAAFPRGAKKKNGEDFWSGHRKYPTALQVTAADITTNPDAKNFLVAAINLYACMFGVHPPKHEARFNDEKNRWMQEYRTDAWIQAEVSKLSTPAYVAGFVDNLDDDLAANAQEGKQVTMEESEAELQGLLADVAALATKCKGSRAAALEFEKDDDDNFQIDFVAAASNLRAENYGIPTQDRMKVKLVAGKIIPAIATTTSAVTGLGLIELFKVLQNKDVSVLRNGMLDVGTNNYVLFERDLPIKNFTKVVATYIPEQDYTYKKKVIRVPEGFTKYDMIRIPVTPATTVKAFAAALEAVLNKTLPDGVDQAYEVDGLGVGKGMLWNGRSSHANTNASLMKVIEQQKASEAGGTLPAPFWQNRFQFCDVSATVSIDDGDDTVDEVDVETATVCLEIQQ
Experiment: Leishmania donovani Ubiquitin Activating Enzyme (LdE1)
Format: functional
Set-up: scale not given: direction of the effect not stated beside the values
Settings: 30 µM
Entries with a potency or affinity are not part of this list.
outcome-measure: Percent Effect (%)
Numbers only, in %.

// solved cases for Percent Effect follow
| compound | test-result |
| --- | --- |
| Cc1ccc(CC(=O)N2CCOC(c3nc(C(C)(C)C)n[nH]3)C2)cn1 (stereo unspecified) | 12.5 |
| C[C@H]1C[C@@H]2CCN(C(=O)c3cccn3C)C[C@H]2O1 | 10.8 |
| O=C(O)C1(Cc2cc(-c3cccc(F)c3)no2)CCOCC1 | 6.76 |
| Cc1ncsc1C(=O)NCCSCCCO | 16.2 |
| Cc1ccsc1-c1nnc(C2CCN(Cc3ccc(F)cc3)CC2)o1 | -9.46 |

Would you kindly look at the next entry?
Exercise: What value of Percent Effect has been reported for the following compound? Cn1cc(CN2CCCN(C(=O)c3cc(Cl)cn3C)CC2)cn1
Key: 13.2

====

Target: Arginase-2, mitochondrial (Homo sapiens)
Sequence (whole entry): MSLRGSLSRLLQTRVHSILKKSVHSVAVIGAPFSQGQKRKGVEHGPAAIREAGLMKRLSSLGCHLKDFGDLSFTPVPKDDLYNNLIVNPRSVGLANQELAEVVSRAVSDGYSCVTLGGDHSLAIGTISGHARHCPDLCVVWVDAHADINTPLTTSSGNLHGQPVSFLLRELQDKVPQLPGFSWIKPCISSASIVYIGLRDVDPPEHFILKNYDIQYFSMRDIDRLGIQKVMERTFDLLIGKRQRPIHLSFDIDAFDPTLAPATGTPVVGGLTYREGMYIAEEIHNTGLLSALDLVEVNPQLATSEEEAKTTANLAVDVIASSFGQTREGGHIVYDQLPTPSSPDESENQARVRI
Assay: in vitro enzyme assay to detect the production of urea directly proportional to the activity of Arginase II; further: in the data most compounds retested in dose-response had high values
Type: functional
Parameters: scale not given: direction of the effect not stated beside the values
Conditions: 33.3 µM
outcome-measure: Percent Effect (%)
One number for each entry, in %.

| molecule | Percent Effect (%) |
| --- | --- |
| CC(C)Oc1ccc(CNC(=O)CC(F)(F)F)cc1F | 1.08 |
| CC(=O)N1CCCC(Cc2cncc(Br)c2)CC1 (centres undefined) | -2.09 |
| CCOC[C@@H]1CCC[C@@]12CN(Cc1nccs1)CCO2 | 3.5 |
| Cn1cc(C2CCCN2C(=O)Cc2n[nH]c3ccccc23)cn1 (centres undefined) | 0.76 |
| O=C(Cn1nc(-c2cccs2)ccc1=O)N1CCCCCC1 | -10.4 |
| CC(O)CN1CCN(C(=O)c2cccn2Cc2ccncc2)CC1 (centres undefined) | 2.66 |
| O=C(Cn1c(=O)n(Cc2ccco2)c2ncccc21)NC1CCCCC1 | -4.41 |
| O=C(CCc1ccc(Br)cc1F)NS(=O)(=O)c1ccc2c(c1)OCCO2 | 1.07 |

Provide Percent Effect values for the following items, in order.
1. COc1ccc(Br)c(C(=O)NCCNc2ccc(C(F)(F)F)cn2)c1
2. CN(C)c1cc(C(=O)NCCc2nnc(-c3ccco3)[nH]2)ccn1
3. N#Cc1ncn(CCC(=O)Nc2c(Cl)cccc2Cl)n1

Key:
[0.21, -4.73, -24.8]

Quick request: Percent Effect for each listed item, please.
1. O=C1COC2(CCN(CC3CC3)CC2)CN1c1ccccc1
2. O=C(c1cnc(-c2cccs2)s1)N1CCCC(n2cccn2)C1 (centres undefined)
3. CC1=N[C@@]2(CC[C@@H]3CN(Cc4ccccc4F)C[C@@H]32)C(=O)N1CC1CC1
4. O=C(c1ccccn1)N1CCCC(c2nccn2CC2CCC2)C1 (centres undefined)
5. NC(=O)C1CN(C(=O)Nc2cc(Cl)cc(Cl)c2)CCO1 (centres undefined)
6. COCCN1CCCC(O)(CN2CCN(c3ncccc3C)CC2)C1=O (centres undefined)
7. Nc1cc2c(nn1)CCN(C(=O)c1cccc3c1OCCO3)C2

Key:
-2
-2
-2.5
-2.27
-3.19
0.476
0.356

Take each entry in turn and give its Percent Effect.
1. O=S(=O)(Nc1cnn(C2CCOCC2)c1)c1c(F)cccc1F
2. CN(C)C(=O)CN1CCC2(CCCN(Cc3cccn3C)C2)C1=O (centres undefined)
3. Cc1cccc(-c2ccc(C(=O)NCC(C)(C)C(N)=O)c(=O)[nH]2)c1
4. Cc1cnn(CC2CN(Cc3nccn3C)CCO2)c1 (centres undefined)
5. Cc1ccc(NC(=O)c2n[nH]c(-n3cnnc3)n2)cc1C

Key:
1. -1.94
2. -3.96
3. -2.81
4. 3.14
5. 21.6

Exercise: So what does the record say about Percent Effect for O=C(N1CCOCC1)[C@@]12CCO[C@@H]1CCN(CCN1CCCCC1)C2 ?
Key: -4.05

====

Biological target: AMP-activated protein kinase, AMPK (Homo sapiens) (UniProt P54646+O43741+P54619+Q9UGJ0+Q9Y478+Q13131+Q9UGI9)
Assay: AMP-dependent Kinase enzyme assay. An in vitro enzyme assay that detects ADP turnover that is directly proportional to AMPK activity. This uses naive AMPK that is activated during the assay with MK-8722
Type: functional
Parameters: scale not given: direction of the effect not stated beside the values
Conditions: 30 µM
outcome-measure: Percent Effect
Hey, just the number and the unit after it is fine.

Example entries begin here.
| compound | Percent Effect |
| --- | --- |
| O=C(NCCCn1cccn1)C1(c2ccc(F)cc2)CC1 | 0.361% |
| COC(=O)CNC(=O)CSCc1nc(O)c2c(C)c(C)sc2n1 | 14.7% |
| CN(CCOc1cccc(CN)c1)C1CCOCC1 | -5.71% |

Quick one: give me Percent Effect for each item below, same order please.
1. COCc1nc2cc(NCc3ccc(C)o3)ccc2o1
2. CCn1nc(C)c(CNC(=O)c2cn(CC3CCCO3)nn2)c1C (stereo not drawn)
3. Cc1ccc(NC2CCN(C(=O)c3cccn3C)CC2)nn1
4. Cn1cc(CN2CCCC3(CCN(c4nncs4)C3)C2)cn1 (stereo not drawn)
5. O=C(NCCOc1ncc(Cl)cc1Cl)c1ccncc1
6. Cc1ccc(OCC(=O)NCC(C)C)nc1

Key:
-42.7%
-1.16%
-16.9%
2.26%
3.95%
-6.5%

Give Percent Effect for each listed item.
1. Cn1c(Nc2cn[nH]c2)c(C#N)c(=O)n(C)c1=O
2. CN(C)c1cc2c(nn1)CCN(C(=O)C1CCc3ccccc31)C2 (stereo not drawn)
3. Cc1cc(C)n(CC(=O)N2CCC(NS(=O)(=O)c3ccccc3)CC2)n1
4. Cc1nc(CN2C(=O)CC[C@H]3[C@@H]2CCN3C(=O)c2ccsc2)cs1
5. Cc1cc(C)n(CC2CN(CCOc3cccc(F)c3)CCO2)n1 (stereo not drawn)
6. CCOc1ccc(C2CC(=O)Nc3c2c(=O)nc2sccn32)cc1 (stereo not drawn)
7. CC(C)COCC1CN(Cc2ccc3c(c2)OCO3)Cc2ncn(C)c21 (stereo not drawn)
8. O=C(c1cccs1)N1CCC(O)(CN2CCc3ccccc3C2)C1 (stereo not drawn)

Key:
1: -1.11%; 2: -21.4%; 3: 4.71%; 4: 2.71%; 5: 0.382%; 6: -2.62%; 7: 10.1%; 8: 0.49%

====

Target: Tyrosyl-tRNA synthetase, putative (Trypanosoma cruzi (strain CL Brener)) (UniProt Q4DSP6)
Sequence (Q4DSP6 as listed by the source): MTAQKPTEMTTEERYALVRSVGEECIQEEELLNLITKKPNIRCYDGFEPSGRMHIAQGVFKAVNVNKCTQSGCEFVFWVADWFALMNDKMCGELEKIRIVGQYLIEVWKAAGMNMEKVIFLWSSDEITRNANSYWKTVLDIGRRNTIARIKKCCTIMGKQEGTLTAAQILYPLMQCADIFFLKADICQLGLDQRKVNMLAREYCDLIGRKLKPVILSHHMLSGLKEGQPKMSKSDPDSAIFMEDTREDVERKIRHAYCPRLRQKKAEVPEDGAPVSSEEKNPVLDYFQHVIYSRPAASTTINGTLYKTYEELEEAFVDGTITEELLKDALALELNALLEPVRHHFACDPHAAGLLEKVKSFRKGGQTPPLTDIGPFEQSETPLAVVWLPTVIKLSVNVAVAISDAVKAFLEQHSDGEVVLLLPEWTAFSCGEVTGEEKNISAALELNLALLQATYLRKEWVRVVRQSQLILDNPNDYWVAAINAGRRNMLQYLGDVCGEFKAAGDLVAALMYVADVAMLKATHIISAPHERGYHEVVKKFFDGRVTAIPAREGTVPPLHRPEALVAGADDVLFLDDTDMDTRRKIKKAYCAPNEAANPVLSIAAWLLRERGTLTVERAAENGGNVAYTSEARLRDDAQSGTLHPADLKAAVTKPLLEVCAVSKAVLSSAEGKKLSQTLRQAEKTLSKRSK
Test: Trypanosoma cruzi tyrosyl tRNA synthetase (TcYRS) _High Tyrosine SOP; further: in the data most compounds retested in dose-response had high values
Format: functional
Design: scale not given: direction of the effect not stated beside the values
Settings: 30 µM
outcome-measure: Percent Effect (%)
Give bare numbers, in %.

Consider the worked cases shown below.
| molecule | measured-target | Percent Effect [%] |
| --- | --- | --- |
| CCN1CCC(CNC(=O)NCc2cc(-c3ccc(C)cc3)no2)C1 (stereo not given) | Tyrosyl-tRNA synthetase, putative (Trypanosoma cruzi (strain CL Brener)) (UniProt Q4DSP6) | 10.9 |
| Cc1ccc(N2CCCC(N(C)Cc3cc(C)no3)C2)nn1 (stereo not given) | Tyrosyl-tRNA synthetase, putative (Trypanosoma cruzi (strain CL Brener)) (UniProt Q4DSP6) | 6.01 |
| COc1ccc(-n2cnnc2SCCC#N)cn1 | Tyrosyl-tRNA synthetase, putative (Trypanosoma cruzi (strain CL Brener)) (UniProt Q4DSP6) | 6.01 |

Hi! Can you tell me Percent Effect for each of these molecules?
1. CC(Cn1cccn1)NCc1csc(-c2ccccc2F)n1 (stereo not given)
2. CN1CC(=O)N(c2ccccc2)CC12CCN(Cc1cccnc1)C2 (stereo not given)
3. Cc1cc(C(=O)N2CCC3(CCCN(CC4CC4)C3=O)C2)c(C)n1C (stereo not given)
4. CCOCC1CN(C(=O)c2ccncc2)Cc2nn(C)cc21 (stereo not given)
5. CC(=O)N(Cc1ncc(C(C)C)o1)C1CCN(Cc2nccn2C)C1 (stereo not given)
6. c1cnn(Cc2nnc(C3CCN(C4CCOCC4)CC3)n2C2CC2)c1
7. COc1c(C)cnc(CSc2nnc(C)s2)c1C

Key:
1: 1.48; 2: 4.17; 3: 20.8; 4: 6.25; 5: 10.9; 6: 7.1; 7: 1.64

Below is a list of molecules. For each, state its recorded Percent Effect.
1. N#Cc1ccc(CNC(=O)NC2CCN(CC(F)F)CC2)cc1
2. O=C(NCCS(=O)(=O)N1CCc2ccccc21)c1c(O)cc(F)cc1F
3. Cc1noc(CN2CCC(c3ccnn3CCO)CC2)n1
4. COc1cc(CNCCc2nc(C)cs2)cc2c1OCCO2
5. CN(C)CC1CN(CCOc2cccc(C#N)c2)CCO1 (stereo not given)
6. c1ccc2cc(OCCN3CCOC(Cn4cncn4)C3)ccc2c1 (stereo not given)
7. Cc1ncccc1CNCC1CCN(CC(O)c2ccccc2)CC1 (stereo not given)

Key:
4.3
-12.4
6.4
4.41
1.48
4.17
6.25

For each of the items listed, what is its Percent Effect?
1. O=C(CCNC(=O)c1ccccc1N1CCOCC1)NC1CCCC1
2. O=C(c1ncccn1)N1C[C@H]2CCC[C@@]2(COCC2CCOCC2)C1
3. CC(=O)N1CCC(c2ccnc(Nc3cnccn3)n2)C1 (stereo not given)
4. CCc1noc(C)c1C(=O)N1CCCC1Cn1cc(C)cn1 (stereo not given)
5. Cc1ccc(-c2nc(CN3CCc4nn(C)c(=O)cc4C3)no2)cc1
6. CCN(Cc1nc2c(cnn2C)c(=O)[nH]1)c1ccc(OC)c(OC)c1
7. CC(=O)Nc1cccc(OCCNC(=O)N(C)Cc2ccco2)c1
8. CCOc1ccc(NC(=O)c2cnc(N3CCCC3)nc2C)cc1

Key:
1. 8.33
2. 6.49
3. 4.25
4. 2.46
5. -0.493
6. 9.38
7. 4.25
8. 4.23
